Recorded selectivity ratio by entry
assay: Loss of tail withdrawal reflex (LOTWR) in rats, single intravenous injection, dose escalation: potent analgesic effect and severe adverse reactions; assay type: in vivo, SD rats; details: rat, in vivo, single intravenous injection, minimum dose resulting in serious adverse reactions / minimum effective dose, class symbol, read-out: The safety therapeutic index

Sample answers from the record:
Qu. Input Cc1ccc(CNC(=O)Nc2ccn[nH]2)c(N(C)C)c1 , output reported selectivity ratio.
Ans. ≤ 2

Qu. Return value of selectivity ratio for input Cc1ccc(CNC(=S)NCc2ccsc2)cc1N(C)C , no commentary.
Ans. ≤ 2

Qu. Report measured selectivity ratio; entry is Cc1ccc(CNC(=S)NCc2cc3ccccc3s2)c(N(C)C)c1
Ans. ≤ 2

Qu. Indicate its recorded selectivity ratio; the compound in question is Cc1ccc(CNC(=O)NCc2ccoc2)c(N(C)C)c1
Ans. ≤ 2

Qu. Give reported selectivity ratio value for Cc1ccc(N(C)C)c(CNC(=O)NCc2ccns2)c1
Ans. 2 to 4

New cases:
Qu. Annotate the compound Cc1cc(CNC(=N)NCc2ccc(C)c(N(C)C)c2)n(C)n1 with its measured selectivity ratio.
Ans. ≤ 2

Qu. Annotate the compound CN(C)c1ccc(Oc2ccccc2)cc1CNC(=O)NCc1ccsc1 with its measured selectivity ratio.
Ans. 2 to 4

Qu. Please give the documented selectivity ratio of CCCCc1ccc(CNC(=S)Nc2cccs2)c(N(C)C)c1
Ans. 2 to 4

Qu. Return selectivity ratio (reported value) for this compound: Cc1ccc(CNC(=O)NCc2ncc[nH]2)cc1N(C)C
Ans. ≤ 2

Qu. Give the value of selectivity ratio reported for the following: Cc1ccc(CNC(=N)NCc2ccsc2)c(N(C)C)c1
Ans. 2 to 4

* * *

Experiment: Loss of tail withdrawal reflex (LOTWR) in rats, single intravenous injection, dose escalation: potent analgesic effect and severe adverse reactions
Type: in vivo, SD rats
Conditions: rat, in vivo, single intravenous injection, minimum dose resulting in serious adverse reactions / minimum effective dose, class symbol, read-out: The safety therapeutic index
Experimental: Using the loss of tail withdrawal reflex (LOTWR) in rats as an indicator, the potent analgesic effect of the compounds according to the present invention was evaluated. 1.1 Experimental animals: Adult male SD rats weighing between 220-300 g were selected for the experiment. The rats were housed in sawdust-bedded cages with a temperature of 25±1°C, humidity ranging from 40% to 60%, and a 12-hour light/12-hour dark cycle. Each cage contained no more than 5 rats, with free access to water and food. […]
Recorded selectivity ratio values for a group of compounds are listed next.

Below are worked cases with known answers.
Qu. Retrieve selectivity ratio measured for Cc1ccc(CNC(=O)NCc2cncs2)c(N(C)C)c1 [Example 38] and print it.
Ans. 2 to 4

Qu. Dear colleague, please send me the reported selectivity ratio for Cc1ccc(CNC(=O)NCc2ccsc2)c(N2CCCCC2)c1 [Example 54] when you can.
Ans. ≤ 2

***
Qu. For the compound Cc1ccc(CNC(=S)NCc2ccco2)c(N(C)C)c1 [Example 69] , give its measured selectivity ratio value.
Ans. 2 to 4

Qu. Look up selectivity ratio of [2H]C([2H])([2H])N(c1cc(C)ccc1CNC(=O)NCc1ccsc1)C([2H])([2H])[2H] [Example 17] and report it.
Ans. 2 to 4

Qu. Name the recorded selectivity ratio of the item CN(C)c1cc(C(F)(F)F)ccc1CNC(=O)NCc1cccs1 [Example 29] in your answer.
Ans. ≤ 2

Qu. Return the recorded selectivity ratio value; entry: Cc1ccc(CNC(=S)NCc2ccc3ccsc3c2)c(N(C)C)c1 [Example 94]
Ans. > 4

Qu. Determine its reported selectivity ratio: Cc1ccc(CNc2c(NCc3ccsc3)c(=O)c2=O)c(N(C)C)c1 [Example 8]
Ans. ≤ 2

Qu. State its selectivity ratio for this compound: Cc1ccc(NC(=S)NCc2cccs2)c(N(C)C)c1 [Example 122]
Ans. > 4

Qu. Hello, please tell me recorded selectivity ratio for this one: Cc1ccc(NC(=S)Nc2cccs2)c(N(C)C)c1 [Example 83]
Ans. > 4

Qu. Please supply the value of reported selectivity ratio for the item Cc1ccc(CSC(=S)OCc2ccsc2)c(N(C)C)c1 [Example 121]
Ans. 2 to 4

Qu. Output selectivity ratio of CN(C)c1ccccc1NC(=O)Nc1ccns1 [Example 97]
Ans. ≤ 2

Qu. Tell us which selectivity ratio value is on record for Cc1ccc(CNC(=O)NCc2cccs2)c(N(C)C)c1 [Example 10]
Ans. > 4

Qu. Look up and state reported selectivity ratio for Cc1ccc(CNC(=O)NCc2ccnn2C)c(N(C)C)c1 [Example 65]
Ans. > 4

Qu. # return recorded selectivity ratio for entry Cc1ccc(CNC(=S)Nc2cncs2)c(N(C)C)c1 [Example 106]
Ans. > 4

Qu. Entry CN(C)c1cccc(NC(=N)Nc2cccs2)c1 [Example 95] needs its selectivity ratio filled in; supply it.
Ans. ≤ 2

Qu. Report measured selectivity ratio; entry is CCCCc1ccc(CNC(=O)NCc2ccsc2)c(N(C)C)c1 [Example 53]
Ans. ≤ 2

Qu. Report selectivity ratio for Cc1ccc(CNC(=NC#N)NCc2ccsc2)c(N(C)C)c1 [Example 4]
Ans. ≤ 2

Qu. Give the reported value of selectivity ratio for this record: Cc1ccc(CNC(=S)NCc2cc(C)nn2C)c(N(C)C)c1 [Example 107]
Ans. 2 to 4

Qu. Report selectivity ratio for Cc1ccc(CNC(=C[N+](=O)[O-])NCc2ccsc2)c(N(C)C)c1 [Example 7]
Ans. ≤ 2

Qu. Please report the measured selectivity ratio for CN(C)c1cc(CCNC(=O)C2COC2)ccc1CNC(=O)NCc1ccsc1 [Example 56]
Ans. ≤ 2

Qu. Indicate its recorded selectivity ratio; the compound in question is CCCCc1cc(CNC(=O)NCc2ccc(C)cc2N(C)C)cs1 [Example 51]
Ans. 2 to 4

Qu. Answer with the recorded selectivity ratio for the compound listed here: Cc1ccc(CNC(=S)NCc2ccccc2)c(N(C)C)c1 [Example 85]
Ans. ≤ 2

Qu. Return reported selectivity ratio. Input compound: CN(C)c1cc(C(F)(F)F)ccc1CNC(=S)NCc1cccs1 [Example 88]
Ans. > 4

Qu. Respond only with selectivity ratio recorded for Cc1ccc(CCNC(=S)Nc2cccs2)c(N(C)C)c1 [Example 81]
Ans. 2 to 4

* * *

Assay: Loss of tail withdrawal reflex (LOTWR) in rats, single intravenous injection, dose escalation: potent analgesic effect and severe adverse reactions
Assay type: in vivo, SD rats
Conditions: rat, in vivo, single intravenous injection, minimum dose resulting in serious adverse reactions / minimum effective dose, class symbol, read-out: The safety therapeutic index
Procedure: Using the loss of tail withdrawal reflex (LOTWR) in rats as an indicator, the potent analgesic effect of the compounds according to the present invention was evaluated. 1.1 Experimental animals: Adult male SD rats weighing between 220-300 g were selected for the experiment. The rats were housed in sawdust-bedded cages with a temperature of 25±1°C, humidity ranging from 40% to 60%, and a 12-hour light/12-hour dark cycle. Each cage contained no more than 5 rats, with free access to water and food. […]
Listing of recorded selectivity ratio by entry.

Qu. In one line, give reported selectivity ratio of the entry CCCc1ccc(CNC(=S)NCc2cccs2)cc1N(C)C [Example 77] .
Ans. 2 to 4

Qu. Please give measured selectivity ratio of the following entry: CN(C)c1ccccc1CNC(=O)NCc1ccsc1 [Example 24]
Ans. 2 to 4

Qu. Answer with the recorded selectivity ratio for the compound listed here: Cc1ccc(CNC(=O)NCc2cnc[nH]2)c(N(C)C)c1 [Example 64]
Ans. > 4

Qu. Name the recorded selectivity ratio of the compound listed here: CN(C)c1cc(C(C)(C)C)ccc1CNC(=S)NCc1cccs1 [Example 118]
Ans. ≤ 2

Qu. Provide only the value of recorded selectivity ratio for Cc1ccc(CNC(=S)NCc2ccccc2)cc1N(C)C [Example 86]
Ans. 2 to 4

New cases:
Qu. Look up and state reported selectivity ratio for Cc1ccc(CNC(=N)NCc2ccnn2C)c(N(C)C)c1 [Example 111]
Ans. ≤ 2

Qu. Indicate the recorded selectivity ratio value for this compound: Cc1ccc(CNC(=S)NCc2cccs2)cc1N(C)C [Example 32]
Ans. > 4

Qu. Supply selectivity ratio value. Item: Cc1ccc(CNC(=O)NCc2ccsc2)cc1N(C)C [Example 18]
Ans. 2 to 4

Qu. Give the measured selectivity ratio for Cc1ccc(CNC(=O)NCc2nccs2)c(N(C)C)c1 [Example 39]
Ans. 2 to 4

Qu. Find the measured selectivity ratio of Cc1ccc(CNC(=O)NCc2ccoc2)cc1N(C)C [Example 35] and report it.
Ans. 2 to 4

* * *

Catalogue of molecules with associated selectivity ratio
test: Loss of tail withdrawal reflex (LOTWR) in rats, single intravenous injection, dose escalation: potent analgesic effect and severe adverse reactions; format: in vivo, SD rats; conditions: rat, in vivo, single intravenous injection, minimum dose resulting in serious adverse reactions / minimum effective dose, class symbol, read-out: The safety therapeutic index

Below, 5 molecules whose answers are already recorded.
Qu. Please give the documented selectivity ratio of CCN(CC)c1cc(C)ccc1CNC(=O)NCc1ccsc1 [Example 55]
Ans. ≤ 2

Qu. Give the value of selectivity ratio reported for the following: Cc1ccc(CCNC(=O)NCc2ccsc2)c(N(C)C)c1 [Example 11]
Ans. 2 to 4

Qu. For Cc1ccc(CNC(=O)OCc2ccsc2)c(N(C)C)c1 [Example 5] , write its selectivity ratio.
Ans. 2 to 4

Qu. Fill in reported selectivity ratio for this entry: Cc1ccc(NC(=N)Nc2ccsc2)c(N(C)C)c1 [Example 14]
Ans. ≤ 2

Qu. Annotate the molecule COC(=O)c1ccc(CNC(=O)NCc2ccc(C)cc2N(C)C)s1 [Example 50] with its measured selectivity ratio.
Ans. ≤ 2

Next:
Qu. Consider the molecule CNC(=O)CCc1ccc(CNC(=O)NCc2ccsc2)c(N(C)C)c1 [Example 45] and give its recorded selectivity ratio.
Ans. 2 to 4

Qu. Provide measured selectivity ratio value, entry: Cc1ccc(CNC(=O)Nc2ccns2)c(N(C)C)c1 [Example 61]
Ans. ≤ 2

Qu. Tell me selectivity ratio reported for Cc1ccc(CNC(=N)NCc2ccns2)c(N(C)C)c1 [Example 90]
Ans. 2 to 4

Qu. Indicate its recorded selectivity ratio; the molecule in question is CN(C)c1cc(O)ccc1CNC(=O)NCc1ccsc1 [Example 15]
Ans. > 4

Qu. Given Cc1ccc(CNC(=S)NCc2ccns2)c(N(C)C)c1 [Example 66] , respond with its selectivity ratio.
Ans. 2 to 4

Values compiled from patent EP4786459A1.
